Examples of compounds with documented drug sensitivity score follow.
- Test system: OVCAR8
- Method: drug sensitivity score (DSS2) on cancer cell count; higher = more sensitive; extreme values may be limits of the assay
- Reported Conditions: co-cultured fibroblast: WI38; 72 h
Please report the result as a number followed by the unit.

Consider the reported drug sensitivity score for these compounds:
Compound	Experimental Result
CNCc1ccc(-c2[nH]c3cc(F)cc4c3c2CCNC4=O)cc1 [Rucaparib]	3.5 DSS
C[C@@H](Oc1cc(-n2cnc3ccc(CN4CCN(C)CC4)cc32)sc1C(N)=O)c1ccccc1C(F)(F)F	32.3 DSS
CN(c1ncccc1CNc1nc(Nc2ccc3c(c2)CC(=O)N3)ncc1C(F)(F)F)S(C)(=O)=O	6.6 DSS

We now examine a further compound.
Briefly, drug sensitivity score measured for CC(C)C[C@H](NC(=O)CNC(=O)c1cc(Cl)ccc1Cl)B(O)O [Ixazomib] : 8.7 DSS

====

- System: OVCAR8
- Method: drug sensitivity score (DSS2) on cancer cell count; higher = more sensitive; extreme values may be limits of the assay
- Reported Conditions: co-cultured fibroblast: BJHTERT; 72 h
Examples of molecules with documented drug sensitivity score follow.
Return type: number; implicit unit DSS.

Molecule	Experimental Result
C[C@@H](Oc1ccc2[nH]nc(/C=C/c3cnn(CCO)c3)c2c1)c1c(Cl)cncc1Cl	8.2
CCC1(c2ccc(N)cc2)CCC(=O)NC1=O (configuration not stated) [Aminoglutethimide]	0
CC(C)Oc1ccc(C(=O)N[C@H](CNC(=O)CN(C)C)Cc2ccc(-c3cn4cccc([C@H](C)O)c4n3)cc2)cc1Cl	18.3
COc1cc(Nc2ncc(F)c(Nc3ccc4c(n3)N(COP(=O)(O)O)C(=O)C(C)(C)O4)n2)cc(OC)c1OC	0
Nc1nc2cc(-c3ccc4ncc(C(=O)N5CCOCC5)n4c3)ccc2o1	0.8
CCN(CC)CCCC(C)Nc1c2ccc(Cl)cc2nc2ccc(OC)cc12 (configuration not stated)	19.8

Briefly, drug sensitivity score measured for O=C1Cc2cc(C(=O)NC3C[C@H]4CC[C@@H](C3)N4S(=O)(=O)CC3CCN(CCCC(F)(F)F)CC3)c(Cl)cc2N1 (some centres not stated) : 0

Briefly, drug sensitivity score measured for Clc1ccc(Nc2nnc(Cc3ccncc3)c3ccccc23)cc1 : 0.2

Briefly, drug sensitivity score measured for NS(=O)(=O)NCCNc1nonc1/C(=N/O)Nc1ccc(F)c(Br)c1 : 0

Briefly, drug sensitivity score measured for CN(C)C[C@@H]1CCn2cc(c3ccccc32)C2=C(C(=O)NC2=O)c2cn(c3ccccc23)CCO1 : 5.5

Briefly, drug sensitivity score measured for Nc1ccccc1NC(=O)c1ccc(CNC(=O)OCc2cccnc2)cc1 : 8.5

Briefly, drug sensitivity score measured for FC(F)(F)c1ccc(CNc2ccc(Cc3c[nH]c4ncc(Cl)cc34)cn2)cn1 : 0

Briefly, drug sensitivity score measured for Cc1c(Cn2c(C)nc3c(C(=O)O)cc(N4CCOCC4)cc32)cccc1C(F)(F)F : 3.7

Briefly, drug sensitivity score measured for C[C@]12CC[C@H](O)CC1=CC[C@@H]1[C@@H]2CC[C@]2(C)C(c3cccnc3)=CC[C@@H]12 : 0

Briefly, drug sensitivity score measured for C[C@H]1C[C@@H]2[C@H]([C@@H](O)C[C@@]3(C)[C@H]2CC[C@]3(O)C(=O)CO)[C@@]2(C)C=CC(=O)C=C12 : 0

Briefly, drug sensitivity score measured for COc1cc2c(NC3CCN(C(C)C)CC3)nc(C3CCCCC3)nc2cc1OCCCN1CCCC1 : 7.1

Briefly, drug sensitivity score measured for CN(c1ncccc1CNc1nc(Nc2ccc3c(c2)CC(=O)N3)ncc1C(F)(F)F)S(C)(=O)=O : 8.5
